Entries annotated with measured inhibition at 30 µM
Target: EphA8 (Homo sapiens)
Sequence (P29322 28-1005): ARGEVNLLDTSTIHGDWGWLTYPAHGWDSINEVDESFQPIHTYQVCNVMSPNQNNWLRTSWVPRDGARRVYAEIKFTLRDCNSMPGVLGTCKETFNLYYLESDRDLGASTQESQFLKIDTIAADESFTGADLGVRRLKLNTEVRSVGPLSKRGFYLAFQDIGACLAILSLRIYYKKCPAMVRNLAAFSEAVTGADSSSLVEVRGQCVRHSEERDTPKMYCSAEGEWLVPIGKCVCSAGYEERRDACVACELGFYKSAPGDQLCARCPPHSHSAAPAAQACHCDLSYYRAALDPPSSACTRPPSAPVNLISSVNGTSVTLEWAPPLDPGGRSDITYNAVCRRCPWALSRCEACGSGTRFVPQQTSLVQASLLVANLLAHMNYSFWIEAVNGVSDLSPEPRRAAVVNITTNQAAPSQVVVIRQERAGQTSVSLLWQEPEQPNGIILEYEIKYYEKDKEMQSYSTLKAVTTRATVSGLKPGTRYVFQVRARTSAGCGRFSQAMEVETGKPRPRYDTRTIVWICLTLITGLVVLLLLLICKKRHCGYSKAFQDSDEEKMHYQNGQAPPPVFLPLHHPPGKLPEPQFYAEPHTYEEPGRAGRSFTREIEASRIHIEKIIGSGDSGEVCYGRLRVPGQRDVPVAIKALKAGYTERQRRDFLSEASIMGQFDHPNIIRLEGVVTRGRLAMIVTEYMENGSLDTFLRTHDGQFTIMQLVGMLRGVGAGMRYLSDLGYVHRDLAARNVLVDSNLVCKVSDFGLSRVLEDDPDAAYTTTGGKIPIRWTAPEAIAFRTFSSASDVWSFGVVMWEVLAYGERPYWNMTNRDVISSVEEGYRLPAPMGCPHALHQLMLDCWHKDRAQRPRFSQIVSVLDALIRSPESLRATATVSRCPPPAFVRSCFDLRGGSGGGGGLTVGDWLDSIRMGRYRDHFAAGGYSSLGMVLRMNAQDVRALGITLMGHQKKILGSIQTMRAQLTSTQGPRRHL
Assay: EphA8 Kinase Activity Assay
Assay type: biochemical
Conditions: read-out: EphA8, % INH, at 30 uM
RESULT_TYPE: inhibition at 30 µM

{"columns": ["COMPOUND_STRUCTURE", "SUBJECT_OF_TEST", "RESULT_TYPE", "READOUT_VALUE"],
 "data": [
  ["Cc1ccc(CCCN2CCN(c3nc(N)nc4[nH]ncc34)Cc3ccccc32)cc1", "EphA8 (Homo sapiens)", "inhibition at 30 µM", "50 to 79%"],
  ["COc1ccccc1CN1CCN(c2nc(N)nc3[nH]ncc23)Cc2ccccc21", "EphA8 (Homo sapiens)", "inhibition at 30 µM", "< 50%"],
  ["Nc1nc(N2CCN(Cc3cccc(F)c3)c3ccccc3C2)c2cn[nH]c2n1", "EphA8 (Homo sapiens)", "inhibition at 30 µM", "50 to 79%"],
  ["Cc1ccc(CCCN2CCN(c3nc(N)nc4[nH]cnc34)Cc3ccccc32)cc1", "EphA8 (Homo sapiens)", "inhibition at 30 µM", "< 50%"],
  ["CC(C)c1ccc(CN2CCN(c3nc(N)nc4[nH]cnc34)Cc3ccccc32)cc1", "EphA8 (Homo sapiens)", "inhibition at 30 µM", "< 50%"],
  ["Nc1nc(N2CCN(Cc3ccccc3Cl)c3ccccc3C2)c2cn[nH]c2n1", "EphA8 (Homo sapiens)", "inhibition at 30 µM", "< 50%"],
  ["Nc1nc(N2CCN(Cc3ccc(Cl)cc3)c3ccccc3C2)c2cn[nH]c2n1", "EphA8 (Homo sapiens)", "inhibition at 30 µM", "50 to 79%"]
]}

Ref: patent US8343961B2
